experiment: Solubility of synthetic glycolipids in hot PBS; type: physicochemical; settings: hot PBS

{"columns": ["structure string", "Water solubility"],
 "data": [
  ["CCCCCCCCCCCCCCCCCC(=O)OC[C@H](COP(=O)(O)OCCNC(=O)CCCCC(=O)NCCCO[C@@H]1O[C@H](CO)[C@H](O)[C@H](O[C@H]2O[C@H](CO)[C@H](O)[C@H](O)[C@H]2NC(C)=O)[C@H]1O[C@@H]1O[C@@H](C)[C@@H](O)[C@@H](O)[C@@H]1O)OC(=O)CCCCCCCCCCCCCCCCC", "Yes"],
  ["CCCCCCCC/C=C\\CCCCCCCC(=O)OC[C@H](COP(=O)(O)OCCNC(=O)CCCCC(=O)NCCCO[C@@H]1O[C@H](CO)[C@H](O)[C@H](O)[C@H]1O[C@@H]1O[C@@H](C)[C@@H](O)[C@@H](O)[C@@H]1O)OC(=O)CCCCCCC/C=C\\CCCCCCCC", "Yes"],
  ["CCCCCCCC/C=C\\CCCCCCCC(=O)OC[C@H](COP(=O)(O)OCCNC(=O)CCCCC(=O)NCCCO[C@@H]1O[C@H](CO)[C@H](O)[C@H](O[C@H]2O[C@H](CO)[C@H](O)[C@H](O)[C@H]2O)[C@H]1O[C@@H]1O[C@@H](C)[C@@H](O)[C@@H](O)[C@@H]1O)OC(=O)CCCCCCC/C=C\\CCCCCCCC", "Yes"],
  ["CCCCCCCC/C=C\\CCCCCCCC(=O)OC[C@H](COP(=O)(O)OCCNC(=O)CCCCC(=O)NCCCO[C@@H]1O[C@H](CO)[C@H](O)[C@H](O[C@H]2O[C@H](CO)[C@H](O)[C@H](O)[C@H]2NC(C)=O)[C@H]1O[C@@H]1O[C@@H](C)[C@@H](O)[C@@H](O)[C@@H]1O)OC(=O)CCCCCCC/C=C\\CCCCCCCC", "Yes"]
]}
